These data points were gathered from the Human Domainome abundance scans (Beltran et al. 2025).

B1: Zinc finger homeobox protein 3, residues 2147 to 2202; numbered along this chain, Q15911 (parent)
chain: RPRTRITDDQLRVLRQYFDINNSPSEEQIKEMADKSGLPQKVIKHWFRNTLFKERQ

# Variants of: B1
# protocol: abundance fitness (aPCA) (normalised: wild type 0, dead -1); higher = more abundant; growth selection in yeast, the domain comes from the species named
# stated.conditions: Homo sapiens
Assignment: determine reported abundance fitness for the given variants.
One number for each entry.

Take a look at these entries with their results.
{"columns": ["sequence.data", "abundance fitness"],
 "data": [
  ["RPRTRITDDQLRVLRQYFDINNSPSEEQIKEMADKFGLPQKVIKHWFRNTLFKERQ [S36F]", -0.099],
  ["RPRLRITDDQLRVLRQYFDINNSPSEEQIKEMADKSGLPQKVIKHWFRNTLFKERQ [T4L]", -0.11],
  ["RPRTRITDDQLRVLRQYFDINNSPSEEQIWEMADKSGLPQKVIKHWFRNTLFKERQ [K30W]", -0.537],
  ["RPRTRITDDQLRVLRQYFDINNSPCEEQIKEMADKSGLPQKVIKHWFRNTLFKERQ [S25C]", -0.244],
  ["RPRTRITDDQLRVLRQYFDINNGPSEEQIKEMADKSGLPQKVIKHWFRNTLFKERQ [S23G]", -0.268]
]}

Hi, could you look up abundance fitness for each item in my list?
1. RPRTRITDDQLRVLRQYFDINNSPSEEQIKEMADWSGLPQKVIKHWFRNTLFKERQ [K35W]
2. RPRTRITDDQPRVLRQYFDINNSPSEEQIKEMADKSGLPQKVIKHWFRNTLFKERQ [L11P]
3. RPRTRITDDQLRVLRQYFDINNSPSEEQIKEMADKSGLPQDVIKHWFRNTLFKERQ [K41D]
4. RPRTRITDDQLRVLRQYFDINNSPSEEQIKEMADKSGLPQKVQKHWFRNTLFKERQ [I43Q]
5. RPRTRITDDQLRVLRQYFDDNNSPSEEQIKEMADKSGLPQKVIKHWFRNTLFKERQ [I20D]
6. RPRTRITDDQLRVLRQYFDINNSPSEEQIKEMADKSGLTQKVIKHWFRNTLFKERQ [P39T]
7. RPRTRITDDQLRVLRQYFDINNSPSEEQIKEMADMSGLPQKVIKHWFRNTLFKERQ [K35M]

-0.346
-0.962
-0.054
-1
-0.087
-0.031
-0.216

For each listed entry, give its abundance fitness.
1. RPRTRITDDQLRVLRQYFDINNSPSEEQIKEMADKSGLPQKVIKHPFRNTLFKERQ [W46P]
2. RPRTRITDDQLRVLRQYFDINNSPSEEQIKEMADKSGLPQKVIKHWFRNTLFEERQ [K53E]
3. RPRTRITDDQLRKLRQYFDINNSPSEEQIKEMADKSGLPQKVIKHWFRNTLFKERQ [V13K]
4. RPQTRITDDQLRVLRQYFDINNSPSEEQIKEMADKSGLPQKVIKHWFRNTLFKERQ [R3Q]
5. RPRTRITDDQLRVLRQYFYINNSPSEEQIKEMADKSGLPQKVIKHWFRNTLFKERQ [D19Y]
6. RPRTRITDDQLRVLRQYFDINNSPSEEQIKEMADLSGLPQKVIKHWFRNTLFKERQ [K35L]
7. RPRTRITDDQLRVLRQYFDINNSPSEEQIKKMADKSGLPQKVIKHWFRNTLFKERQ [E31K]

[-0.812, -0.006, -0.054, -0.062, 0.044, -0.163, -0.017]

Provide abundance fitness values for the following items, in order.
1. RPRTRITDDQLRVLRQYFDINNSPSEEAIKEMADKSGLPQKVIKHWFRNTLFKERQ [Q28A]
2. RPRTRIPDDQLRVLRQYFDINNSPSEEQIKEMADKSGLPQKVIKHWFRNTLFKERQ [T7P]
3. RPRTRITDDQLRVLRMYFDINNSPSEEQIKEMADKSGLPQKVIKHWFRNTLFKERQ [Q16M]
4. RPRTRITDDQLRVLRQYFDINNSPSEEQIKEMADKSGLPQKVIKHYFRNTLFKERQ [W46Y]

1: -0.042; 2: -0.086; 3: -0.01; 4: -0.439
